B1: LOXL2 (parent)
chain: HISSCKLGPQVSLDPMKNVTCENG

Variants of: B1
Assay: protein stability index of a GFP-peptide fusion (GPS, HEK-293T) (PSI 1-6); higher = more stable;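 also: lentivirally expressed fusions sorted by FACS into six bins by GFP to DsRed ratio, PSI derived from sequencing read proportions per bin multiplied by bin number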
Conditions: c terminus: a fixed tail appended
Assign class by protein stability index: not lower than 4 means met; lower than 4 means not met.

1. P9I = not met
2. C21E = met
3. N18W = not met
4. E22W = not met
5. Q10A = met
6. V11L = not met
7. S12F = not met
8. D14P = not met
9. C5D = met
10. P15L = not met
11. G24L = not met
12. V11D = met
13. P15C = not met
14. N18L = not met
15. N23W = not met
16. V19I = not met
17. G24K = not met
18. S3E = met
19. T20C = not met
20. G24F = not met
21. I2E = met
22. C5I = not met
23. L13W = not met
24. S4Y = not met
25. Q10L = not met
26. T20W = not met
27. K17C = not met
28. K17L = not met
29. Q10R = not met
30. I2A = met
31. P15F = not met
32. C21Y = not met
33. V11I = not met
34. P9Y = not met
35. K6C = not met
36. N23T = not met
37. E22A = not met
38. E22T = not met
39. N23P = not met
40. V19N = met
41. P9F = not met
42. Q10C = not met
43. M16W = not met
44. Q10M = not met
45. M16K = met
46. I2D = met
47. L13C = not met
48. M16E = met
49. I2Y = not met
50. P9C = not met
51. E22S = not met
52. S12L = not met
53. P9V = not met
